# target_of_assay: Bcl-2 (GST-Bcl-2) (Homo sapiens)
# Sequence (P10415 whole entry, species assumed): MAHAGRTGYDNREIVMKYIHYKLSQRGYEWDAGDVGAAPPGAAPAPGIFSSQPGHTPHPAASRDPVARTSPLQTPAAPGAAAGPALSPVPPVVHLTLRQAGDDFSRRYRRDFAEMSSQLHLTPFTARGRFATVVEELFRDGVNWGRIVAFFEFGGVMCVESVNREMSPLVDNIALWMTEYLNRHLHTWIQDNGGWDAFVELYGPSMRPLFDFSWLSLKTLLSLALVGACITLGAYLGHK
# experiment_description: TR-FRET binding assay, competition with F-Bak for the Bcl-2 binding site
# particulars: Bcl-2, for comparison (selectivity)
Parameter: Ki. Scope: all listed entries.
experimental_endpoint: Ki (µM)

>  <record_smiles>
O=C(Nc1nc2ccccc2s1)c1cccc2c1CN(c1nc(C(=O)O)c(CCOc3ccccc3)s1)CC2

>  <readout_value>
0.35

$$$$
>  <record_smiles>
N#Cc1ncccc1-c1ccc(OCCCc2sc(N3CCc4cccc(C(=O)Nc5nc6ccccc6s5)c4C3)nc2C(=O)O)cc1

>  <readout_value>
0.31

$$$$
>  <record_smiles>
CC(C)n1cnc2c(-c3ccc(OCCCc4sc(N5CCc6cccc(C(=O)Nc7nc8ccccc8s7)c6C5)nc4C(=O)O)cc3)ncnc21

>  <readout_value>
0.13

$$$$
>  <record_smiles>
CN(C)CCCc1ccc(OCCCc2ccc(N3CCc4cccc(C(=O)Nc5nc6ccccc6s5)c4C3)nc2C(=O)O)c(F)c1

>  <readout_value>
0.219

$$$$
>  <record_smiles>
CN(C)CC#Cc1ccc(OCCCc2ccc(N3CCc4cccc(C(=O)Nc5nc6ccccc6s5)c4C3)nc2C(=O)O)c(F)c1

>  <readout_value>
0.272

$$$$
>  <record_smiles>
CN1CCN(c2ccc(OCCCc3ccc(N4CCc5cccc(C(=O)Nc6nc7ccccc7s6)c5C4)nc3C(=O)O)cc2)CC1

>  <readout_value>
0.572

$$$$
>  <record_smiles>
O=C(Nc1nc2ccccc2s1)c1cccc2c1CN(c1nc(C(=O)O)c(CCCOc3ccc(N4CCNCC4)cc3)s1)CC2

>  <readout_value>
0.09

$$$$
